biological target: Mouse ACVR2A (mouse, UniProt P27038 20-135, limits assumed); assay: ELISA; further: test concentration or dose not given here
Sequence (P27038 20-135 limits assumed): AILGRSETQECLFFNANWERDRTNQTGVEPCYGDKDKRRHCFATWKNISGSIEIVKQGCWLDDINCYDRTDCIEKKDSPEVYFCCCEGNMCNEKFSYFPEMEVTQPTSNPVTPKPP
property-measured: optical density (OD)

1) 372_A04 (antibody, V domains shown) VH: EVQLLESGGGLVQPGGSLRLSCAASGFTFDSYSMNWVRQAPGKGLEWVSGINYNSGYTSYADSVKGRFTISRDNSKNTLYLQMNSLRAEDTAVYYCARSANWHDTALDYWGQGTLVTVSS VL: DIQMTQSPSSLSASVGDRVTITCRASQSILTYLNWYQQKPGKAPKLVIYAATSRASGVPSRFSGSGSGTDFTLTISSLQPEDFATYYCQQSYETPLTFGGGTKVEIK: 3.4
2) 368_F03 (antibody, V domains shown) VH: EVQLLESGGGLVQPGGSLRLSCAASGFTFDSYSMNWVRQAPGKGLEWVAGINYNSGYTGYADSVKGRFTISRDNSKNTLYLQMNSLRAEDTAVYYCAKSANWHDTALDYWGQGTLVTVSS VL: DIQMTQSPSSLSASVGDRVTITCRASQSIISYLNWYQQKPGKAPKLVIYAATSRHSGVPSRFSGSGSGTDFTLTISSLQPEDFATYYCQQSYDSPLTFGGGTKVEIK: 2.6

Recorded values, source patent US20210380703A1.
